Reference source: ChEMBL document CHEMBL2176988

- STUDY SYSTEM: Neuronal acetylcholine receptor; alpha3/beta4 (Homo sapiens, UniProt P30926+P32297)
- ASSAY PROTOCOL: Agonist activity at human alpha3beta4 nAChR expressed in CHO cells assessed as calcium flux by calcium4-based FLIPR assay relative to nicotine
- Format: functional, cell-based
Reported Emax by item:

>  <COMPOUND>
Cc1ccoc1C(=O)N1CC2CNCC(C2)C1

>  <Emax>
11%

$$$$
>  <COMPOUND>
O=C(c1ccc(Cl)o1)N1CC2CNCC(C2)C1

>  <Emax>
61%

$$$$
>  <COMPOUND>
O=C(c1cc(Cl)co1)N1CC2CNCC(C2)C1

>  <Emax>
27%

$$$$
>  <COMPOUND>
O=C(c1ccccc1)N1CC2CNCC(C2)C1

>  <Emax>
8%

$$$$
>  <COMPOUND>
O=C(c1ncco1)N1CC2CNCC2C1 (configuration not stated)

>  <Emax>
5%

$$$$
>  <COMPOUND>
O=C(c1cc(Br)co1)N1CC2CNCC2C1 (configuration not stated)

>  <Emax>
45%

$$$$
>  <COMPOUND>
O=C(c1cc(Br)co1)N1CC2CNCC(C2)C1

>  <Emax>
13%

$$$$
